- Test system: human monoclonal antibody CR57
- Type: binding
Entries are sorted into classes by Binding of CR57 to linear peptide (PEPSCAN-ELISA signal) as follows: lower range (below 70), middle range (70 to below 90), upper range (90 or more)

• TFKRKHFRPTPDACR = upper range
• PHVNGVFFNGIILGP = upper range
• TNLSGFSYMELKVGY = lower range
• LVVEELVRKREECLD = lower range
• RKREECLDALESIMT = middle range

Prompt: Kindly state the category for this sequence: TTKSVSFRRLSHLRK
Completion: lower range

Prompt: Kindly state the category for this sequence: YTILDKLGPWSPIDI
Completion: lower range

Prompt: Kindly state the category for this sequence: VFPSGKCSGVAVSST
Completion: middle range

Prompt: Kindly state the category for this sequence: SSTYCSTNHDYTIWM
Completion: middle range

Prompt: Kindly state the category for this sequence: CTGVVTEAENYTNFV
Completion: middle range

Prompt: Kindly state the category for this sequence: SLKGACKLKLCGVLG
Completion: upper range

Prompt: Kindly state the category for this sequence: CSTNHDYTIWMPENP
Completion: lower range

Prompt: Kindly state the category for this sequence: VIISPSVADLDPYDR
Completion: lower range

====

- Tested on: human monoclonal antibody CR57
- Type: binding
REPORTED PROPERTY: Binding of CR57 to linear peptide (PEPSCAN-ELISA signal)

Solved entries:
- HDYTIWMPENPRLGM: 82
- HFRPTPDACRAAYNW: 46
- KLCGVLGLRLMDGTW: 3152
- LGPWSPIDIHHLSCP: 69

Prompt: Indicate the recorded Binding of CR57 to linear peptide (PEPSCAN-ELISA signal) value for this sequence: GMSCDIFTNSRGKRA
Completion: 54

Prompt: Indicate the recorded Binding of CR57 to linear peptide (PEPSCAN-ELISA signal) value for this sequence: VRTWNEILPSKGCLR
Completion: 90

====

Here the recorded Binding of CR57 (10 μg/ml) to looped/cyclic peptide (PEPSCAN-ELISA) is given for each entry.
- Test system: human monoclonal antibody CR57
- Assay type: binding
Give a plain numeric answer without units written out.

* SSLLQQHMELLESSV | 98
* CLDALESIMTTKSVS | 111
* LYKSLKGACKLKLCG | 91
* MDGTWVAMQTSNETK | 114
* IMTTKSVSFRRLSHL | 74
* ETCGFVDERGLYKSL | 90
* SVIPLVHPLADPSTV | 71
* GFGKAYTIFNKTLME | 94

Prompt: Indicate the recorded Binding of CR57 (10 μg/ml) to looped/cyclic peptide (PEPSCAN-ELISA) value for this sequence: GSETCGFVDERGLYK
Completion: 64

Prompt: Indicate the recorded Binding of CR57 (10 μg/ml) to looped/cyclic peptide (PEPSCAN-ELISA) value for this sequence: LCGVLGLRLMDGTWV
Completion: 128

Prompt: Indicate the recorded Binding of CR57 (10 μg/ml) to looped/cyclic peptide (PEPSCAN-ELISA) value for this sequence: PDQLVNLHDFRSDEI
Completion: 70

Prompt: Indicate the recorded Binding of CR57 (10 μg/ml) to looped/cyclic peptide (PEPSCAN-ELISA) value for this sequence: SVSFRRLSHLRKLVP
Completion: 94

====

- System: human monoclonal antibody CRJB
- Type: binding
REPORTED PROPERTY: Binding of CRJB to linear peptide (PEPSCAN-ELISA signal)

Solved entries:
* TIFNKTLMEADAHYK | 123
* CDIFTNSRGKRASKG | 104
* EILPSKGCLRVGGRC | 112
* AYTIFNKTLMEADAH | 121
* STNHDYTIWMPENPR | 112
* VIISPSVADLDPYDR | 98

Prompt: Indicate the recorded Binding of CRJB to linear peptide (PEPSCAN-ELISA signal) value for this sequence: RKREECLDALESIMT
Completion: 110

Prompt: Indicate the recorded Binding of CRJB to linear peptide (PEPSCAN-ELISA signal) value for this sequence: LVNLHDFRSDEIEHL
Completion: 104

Prompt: Indicate the recorded Binding of CRJB to linear peptide (PEPSCAN-ELISA signal) value for this sequence: SVRTWNEILPSKGCL
Completion: 138

Prompt: Indicate the recorded Binding of CRJB to linear peptide (PEPSCAN-ELISA signal) value for this sequence: NEILPSKGCLRVGGR
Completion: 130

Prompt: Indicate the recorded Binding of CRJB to linear peptide (PEPSCAN-ELISA signal) value for this sequence: VVTEAENYTNFVGYV
Completion: 106

====

- Test system: human monoclonal antibody CRJA
- Format: binding
REPORTED PROPERTY: Binding of CRJA to linear peptide (PEPSCAN-ELISA signal)
Give a plain numeric answer without units written out.

Solved entries:
- SYMELKVGYILAIKM: 143
- NLSGFSYMELKVGYI: 94
- VGYVTTTFKRKHFRP: 80
- MQSSLLQQHMELLES: 113
- VIISPSVADLDPYDR: 47

Here's the next entry for you.
Prompt: Indicate the recorded Binding of CRJA to linear peptide (PEPSCAN-ELISA signal) value for this sequence: IEHLVVEELVRKREE
Completion: 100

====

Here the recorded Binding of CRJA to linear peptide (PEPSCAN-ELISA signal) is given for each entry.
- Test system: human monoclonal antibody CRJA
- Type: binding
Give a plain numeric answer without units written out.

Solved entries:
- SGKCSGVAVSSTYCS: 65
- TPDACRAAYNWKMAG: 132
- RASKGSETCGFVDER: 90

Here's the next entry for you.
Prompt: Indicate the recorded Binding of CRJA to linear peptide (PEPSCAN-ELISA signal) value for this sequence: RPTPDACRAAYNWKM
Completion: 123

====

Here the recorded Binding of CRJB to linear peptide (PEPSCAN-ELISA signal) is given for each entry.
- Tested on: human monoclonal antibody CRJB
- Format: binding
Give a plain numeric answer without units written out.

Solved entries:
- PHVNGVFFNGIILGP: 173
- SETCGFVDERGLYKS: 116
- LRTVKTTKESLVIIS: 104

Prompt: Indicate the recorded Binding of CRJB to linear peptide (PEPSCAN-ELISA signal) value for this sequence: IPLVHPLADPSTVFK
Completion: 156

Prompt: Indicate the recorded Binding of CRJB to linear peptide (PEPSCAN-ELISA signal) value for this sequence: FKRKHFRPTPDACRA
Completion: 92

Prompt: Indicate the recorded Binding of CRJB to linear peptide (PEPSCAN-ELISA signal) value for this sequence: HLVVEELVRKREECL
Completion: 123

Prompt: Indicate the recorded Binding of CRJB to linear peptide (PEPSCAN-ELISA signal) value for this sequence: CTNLSGFSYMELKVG
Completion: 110

====

- Tested on: human monoclonal antibody CR57
- Assay type: binding
Here the recorded Binding of CR57 (10 μg/ml) to looped/cyclic peptide (PEPSCAN-ELISA) is given for each entry.
Give a plain numeric answer without units written out.

Solved entries:
• SHLRKLVPGFGKAYT = 143
• RCHPHVNGVFFNGII = 104

Prompt: Supply Binding of CR57 (10 μg/ml) to looped/cyclic peptide (PEPSCAN-ELISA) measured with human monoclonal antibody CR57 for HLRKLVPGFGKAYTI .
Completion: 118

Prompt: Supply Binding of CR57 (10 μg/ml) to looped/cyclic peptide (PEPSCAN-ELISA) measured with human monoclonal antibody CR57 for TKSVSFRRLSHLRKL .
Completion: 88

Prompt: Supply Binding of CR57 (10 μg/ml) to looped/cyclic peptide (PEPSCAN-ELISA) measured with human monoclonal antibody CR57 for LHDFRSDEIEHLVVE .
Completion: 40

Prompt: Supply Binding of CR57 (10 μg/ml) to looped/cyclic peptide (PEPSCAN-ELISA) measured with human monoclonal antibody CR57 for SVRTWNEILPSKGCL .
Completion: 151

Prompt: Supply Binding of CR57 (10 μg/ml) to looped/cyclic peptide (PEPSCAN-ELISA) measured with human monoclonal antibody CR57 for LPSKGCLRVGGRCHP .
Completion: 80

Prompt: Supply Binding of CR57 (10 μg/ml) to looped/cyclic peptide (PEPSCAN-ELISA) measured with human monoclonal antibody CR57 for AMQTSNETKWCPPDQ .
Completion: 84

Prompt: Supply Binding of CR57 (10 μg/ml) to looped/cyclic peptide (PEPSCAN-ELISA) measured with human monoclonal antibody CR57 for CGVLGLRLMDGTWVA .
Completion: 110

Prompt: Supply Binding of CR57 (10 μg/ml) to looped/cyclic peptide (PEPSCAN-ELISA) measured with human monoclonal antibody CR57 for QQHMELLESSVIPLV .
Completion: 141

Prompt: Supply Binding of CR57 (10 μg/ml) to looped/cyclic peptide (PEPSCAN-ELISA) measured with human monoclonal antibody CR57 for LRKLVPGFGKAYTIF .
Completion: 92

Prompt: Supply Binding of CR57 (10 μg/ml) to looped/cyclic peptide (PEPSCAN-ELISA) measured with human monoclonal antibody CR57 for RLMDGTWVAMQTSNE .
Completion: 96

Prompt: Supply Binding of CR57 (10 μg/ml) to looped/cyclic peptide (PEPSCAN-ELISA) measured with human monoclonal antibody CR57 for LSHLRKLVPGFGKAY .
Completion: 121

Prompt: Supply Binding of CR57 (10 μg/ml) to looped/cyclic peptide (PEPSCAN-ELISA) measured with human monoclonal antibody CR57 for NKTLMEADAHYKSVR .
Completion: 120

Prompt: Supply Binding of CR57 (10 μg/ml) to looped/cyclic peptide (PEPSCAN-ELISA) measured with human monoclonal antibody CR57 for CHPHVNGVFFNGIIL .
Completion: 113
